Measured Cmax accompanies every entry in the list below.
- method summary: Single oral dose human plasma pharmacokinetics of D, DA and DOH after Cogni.Q
- Assay type: in vivo
- measurement context: female, human, plasma, oral, 4 Cogni.Q vegicaps, Women n=10 (S1 Table); read-out: Cmax, nM, Mean, F
State just the number; it will be interpreted in nM.

Example entries and their recorded answers appear below.
- molecule: "CC1(C)Oc2cc3oc(=O)ccc3cc2C[C@@H]1O"
  unit label: "nM"
  Cmax: 2610
- molecule: "CC(C)=CC(=O)O[C@H]1Cc2cc3ccc(=O)oc3cc2OC1(C)C"
  unit label: "nM"
  Cmax: 5.37

Please look at the following molecule next.
[ask] Item under review: C/C=C(/C)C(=O)O[C@H]1Cc2cc3ccc(=O)oc3cc2OC1(C)C [DA, decursinol angelate] . Reported Cmax?
[reply] 43.9
